Source: paper doi:10.1101/2020.05.01.070730v2

# measured target: MutS (Pseudomonas aeruginosa)
# Sequence (Q9HY08 whole entry): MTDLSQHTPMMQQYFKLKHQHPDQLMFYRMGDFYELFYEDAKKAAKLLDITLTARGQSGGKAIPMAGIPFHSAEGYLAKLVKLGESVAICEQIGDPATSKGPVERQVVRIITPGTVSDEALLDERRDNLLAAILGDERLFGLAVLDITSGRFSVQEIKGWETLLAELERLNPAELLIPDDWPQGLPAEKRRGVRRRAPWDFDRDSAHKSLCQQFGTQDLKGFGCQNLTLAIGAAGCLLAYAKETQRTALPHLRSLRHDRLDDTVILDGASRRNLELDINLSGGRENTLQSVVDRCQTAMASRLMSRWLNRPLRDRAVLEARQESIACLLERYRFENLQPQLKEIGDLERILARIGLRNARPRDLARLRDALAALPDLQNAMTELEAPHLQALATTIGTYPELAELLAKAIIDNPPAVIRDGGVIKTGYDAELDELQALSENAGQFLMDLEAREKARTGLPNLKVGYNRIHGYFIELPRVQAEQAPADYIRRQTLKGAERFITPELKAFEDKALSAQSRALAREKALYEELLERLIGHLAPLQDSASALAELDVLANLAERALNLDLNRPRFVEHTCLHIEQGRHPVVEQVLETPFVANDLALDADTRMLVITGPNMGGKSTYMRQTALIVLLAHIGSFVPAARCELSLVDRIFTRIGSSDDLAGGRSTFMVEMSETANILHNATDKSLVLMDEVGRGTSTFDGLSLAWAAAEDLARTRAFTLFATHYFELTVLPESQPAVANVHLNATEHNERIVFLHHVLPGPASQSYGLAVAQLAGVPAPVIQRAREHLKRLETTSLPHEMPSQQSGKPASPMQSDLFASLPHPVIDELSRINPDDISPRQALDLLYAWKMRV
# assay protocol: biochemical
outcome measure: EC50 (µM)
One number for each entry, in µM.

Give the measured EC50 of Nc1ncnc2c1ncn2[C@@H]1O[C@H](COP(=O)(O)OP(=O)(O)OP(=O)(O)O)[C@@H](O)[C@H]1O [ATP] . 618
